biological target: Neuraminidase (Influenza A virus); test: Inhibition of Influenza A virus A/WSN/1933(H1N1) neuraminidase
Sequence (B4URF0 whole entry): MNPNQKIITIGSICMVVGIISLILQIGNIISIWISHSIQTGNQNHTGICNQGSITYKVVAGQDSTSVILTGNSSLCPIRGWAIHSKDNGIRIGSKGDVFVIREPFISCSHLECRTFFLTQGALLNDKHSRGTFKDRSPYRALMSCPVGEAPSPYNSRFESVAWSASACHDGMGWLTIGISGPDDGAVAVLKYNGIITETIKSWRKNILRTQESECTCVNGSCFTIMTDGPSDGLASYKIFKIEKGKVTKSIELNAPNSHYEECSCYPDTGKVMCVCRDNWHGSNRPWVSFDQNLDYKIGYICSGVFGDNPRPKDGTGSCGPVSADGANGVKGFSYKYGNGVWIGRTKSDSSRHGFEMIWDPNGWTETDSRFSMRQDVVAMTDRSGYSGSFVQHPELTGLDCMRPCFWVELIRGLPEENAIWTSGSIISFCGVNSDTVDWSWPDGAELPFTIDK
pIC50: −log10 of the molar value.
Classify by measured pIC50: yes (1) if it is equal to or exceeds 5, no (0) if it is smaller.

CC(=O)N[C@H]1[C@H]([C@H](O)[C@H](O)CO)OC(C(=O)O)=C[C@@H]1N(CCCN)C(=N)N	no (0)
CC(=O)N[C@H]1[C@H]([C@H](O)[C@H](O)CO)OC(C(=O)O)=C[C@@H]1NC1=NCCN1	no (0)
CC(=O)N[C@H]1[C@H]([C@H](O)[C@H](O)CO)OC(C(=O)O)=C[C@@H]1N(CCCC(=O)N1CCNCC1)C(=N)N	yes (1)
CC(=O)N[C@H]1[C@H]([C@H](O)[C@H](O)CO)OC(C(=O)O)=C[C@@H]1N(CCCC(=O)N1CCN(C)CC1)C(=N)N	yes (1)
CC(=O)N[C@H]1[C@H]([C@H](O)[C@H](O)CO)OC(C(=O)O)=C[C@@H]1NCCCN	no (0)
CC(=O)N[C@H]1[C@H]([C@H](O)[C@H](O)CO)OC(C(=O)O)=C[C@@H]1NCCCCC(=O)O	no (0)
CC(=O)N[C@H]1[C@H]([C@H](O)[C@H](O)CO)OC(C(=O)O)=C[C@@H]1N(CCCC(=O)N1CCCCC1)C(=N)N	no (0)
CC(=O)N[C@H]1[C@H]([C@H](O)[C@H](O)CO)OC(C(=O)O)=C[C@@H]1N=C(N)NCCCN	no (0)
CC(=O)N[C@H]1[C@H]([C@H](O)[C@H](O)CO)OC(C(=O)O)=C[C@@H]1NC(=N)NCCCCN	no (0)
CC(=O)N[C@H]1[C@H]([C@H](O)[C@H](O)CO)OC(C(=O)O)=C[C@@H]1NCCCCN	no (0)
CC(=O)N[C@H]1[C@H]([C@H](O)[C@H](O)CO)OC(C(=O)O)=C[C@@H]1N(CCCC(=O)O)C(=N)N	yes (1)
CC(=O)N[C@H]1[C@H]([C@H](O)[C@H](O)CO)OC(C(=O)O)=C[C@@H]1N(CCCCN)C(=N)N	no (0)
CC(=O)N[C@H]1[C@H]([C@H](O)[C@H](O)CO)OC(C(=O)O)=C[C@@H]1N(CCCC(=O)N1CCOCC1)C(=N)N	no (0)
CC(=O)N[C@H]1[C@H]([C@H](O)[C@H](O)CO)OC(C(=O)O)=C[C@@H]1NCCCC(=O)O	no (0)

* * *

biological target: Neuraminidase (Influenza A virus)
ENDPOINT LABEL: Ki

CC(=O)N[C@H]1[C@H]([C@H](O)[C@H](O)CO)OC(C(=O)O)=C[C@@H]1N	0.04 µM

* * *

experiment: Antiviral activity against Influenza A virus (A/WSN/1933(H1N1)) infected in MDCK cells assessed as inhibition of virus-induced cytopathicity; assay type: functional, organism-based
pEC50: −log10 of the molar value.
ENDPOINT LABEL: pEC50

CC(=O)N[C@H]1[C@H]([C@H](O)[C@H](O)CO)OC(C(=O)O)=C[C@@H]1N(CCCC(=O)N1CCCCC1)C(=N)N	4.35
CC(=O)N[C@H]1[C@H]([C@H](O)[C@H](O)CO)OC(C(=O)O)=C[C@@H]1N(CCCC(=O)N1CCNCC1)C(=N)N	6.11
CC(=O)N[C@H]1[C@H]([C@H](O)[C@H](O)CO)OC(C(=O)O)=C[C@@H]1N(CCCC(=O)N1CCN(C)CC1)C(=N)N	4.97
CC(=O)N[C@H]1[C@H]([C@H](O)[C@H](O)CO)OC(C(=O)O)=C[C@@H]1NC(=N)N	7.89
CC(=O)N[C@H]1[C@H]([C@H](O)[C@H](O)CO)OC(C(=O)O)=C[C@@H]1N(CCCC(=O)O)C(=N)N	4.28
CC(=O)N[C@H]1[C@H]([C@H](O)[C@H](O)CO)OC(C(=O)O)=C[C@@H]1N(CCCC(=O)N1CCOCC1)C(=N)N	4.42
